System: Staphylococcus epidermidis
protocol: Antibacterial activity against methicillin resistant Staphylococcus epidermidis RP62A ATCC 35984/CCUG 31568 after 48 hrs by microdilution method
Format: functional
details: RP62A ATCC 35984/CCUG 31568, 48 h
observed-property: MIC

{"compound-structure": "CC(C)(C)c1cc(C(C)(C)C)cc(S(=O)(=O)Nc2cccc(C(=O)NCCNC(=N)N)c2)c1.Cl", "MIC": "8 mg/L"}
{"compound-structure": "CN(c1ccc(C(=O)NCCNC(=N)N)cc1)S(=O)(=O)c1cc(C(C)(C)C)cc(C(C)(C)C)c1.Cl", "MIC": "4 mg/L"}
{"compound-structure": "CC(C)(C)c1cc(C(C)(C)C)cc(S(=O)(=O)Nc2cc3ccccc3cc2C(=O)NCCNC(=N)N)c1.Cl", "MIC": "4 mg/L"}
{"compound-structure": "CN(c1ccc(C(=O)NCCCN)cc1)S(=O)(=O)c1cc(C(C)(C)C)cc(C(C)(C)C)c1.Cl", "MIC": "16 mg/L"}
{"compound-structure": "Cl.N=C(N)NCCNC(=O)c1ccc(NS(=O)(=O)c2cc(C(F)(F)F)cc(C(F)(F)F)c2)cc1", "MIC": "> 128 mg/L"}

Give me MIC for each of these compounds, listed below.
1. Cc1cc(C(=O)NCCNC(=N)N)ccc1NS(=O)(=O)c1cc(C(C)(C)C)cc(C(C)(C)C)c1.Cl
2. CC(C)(C)c1cc(C(C)(C)C)cc(S(=O)(=O)NCCCCNC(=N)N)c1.Cl
3. CC(C)(C)c1cc(C(C)(C)C)cc(S(=O)(=O)Nc2cc3ccccc3cc2C(=O)NCCN)c1.Cl
4. CC(C)(C)c1cc(C(C)(C)C)cc(S(=O)(=O)N2CCC[C@H]2C(=O)NCCNC(=N)N)c1.Cl
5. CC(C)(C)c1cc(C(C)(C)C)cc(S(=O)(=O)Nc2ccccc2C(=O)NCCN)c1.Cl

# output
4 mg/L
8 mg/L
4 mg/L
32 mg/L
32 mg/L

Give me MIC for each of these compounds, listed below.
1. CC(C)(C)c1cc(C(C)(C)C)cc(S(=O)(=O)N2CCC(C(=O)NCCNC(=N)N)CC2)c1.Cl
2. CN(c1cccc(C(=O)NCCN)c1)S(=O)(=O)c1cc(C(C)(C)C)cc(C(C)(C)C)c1.Cl
3. CC(C)(C)c1cc(C(C)(C)C)cc(S(=O)(=O)Nc2ccc(CC(=O)NCCNC(=N)N)cc2)c1.Cl
4. COc1c(C(C)(C)C)cc(S(=O)(=O)Nc2ccc(C(=O)NCCNC(=N)N)cc2)cc1C(C)(C)C.Cl

# output
1. 16 mg/L
2. 16 mg/L
3. 8 mg/L
4. 4 mg/L

Give me MIC for each of these compounds, listed below.
1. CC(C)(C)c1cc(C(C)(C)C)cc(S(=O)(=O)Nc2ccc(CC(=O)NCCN)cc2)c1.Cl
2. CC(C)(C)c1cc(C(C)(C)C)cc(S(=O)(=O)Nc2ccc(C(=O)NCCN)cc2)c1.Cl
3. CN(c1cccc(C(=O)NCCNC(=N)N)c1)S(=O)(=O)c1cc(C(C)(C)C)cc(C(C)(C)C)c1.Cl

# output
16 mg/L
32 mg/L
4 mg/L
